# PROTOCOL TEXT: Plasma clearance in monkey at 1 mg/kg, iv
# Format: ADME, organism-based, Macaca mulatta
# SETTINGS: rhesus monkey
MEASURE: clearance (mL/min/kg)
Value expressed in mL/min/kg; do not type the unit.

clearance for C[C@]1(CO)Cc2cc(NC(=O)c3cnn4cccnc34)c(N3CCOCC3)cc2O1 is 11

----------
# PROTOCOL TEXT: AUC (infinity) in monkey at 1 mg/kg, po
# Assay type: ADME, organism-based, Macaca mulatta
# Set-up: dose 1 mg/kg, time infinity, route oral
# SETTINGS: rhesus monkey, in vivo
MEASURE: AUC(0-inf) (µM·h)
Report the value in µM·h with no unit label.

Per the record, C[C@]1(CO)Cc2cc(NC(=O)c3cnn4cccnc34)c(N3CCOCC3)cc2O1 has AUC(0-inf) of 3.3

----------
# PROTOCOL TEXT: Oral bioavailability in dog at 1 mg/kg
# Format: ADME, organism-based, Canis lupus familiaris
# SETTINGS: in vivo
MEASURE: bioavailability (%)
Number in %, nothing else.

Data point: C[C@]1(CO)Cc2cc(NC(=O)c3cnn4cccnc34)c(N3CCOCC3)cc2O1 ; bioavailability = 30

----------
# PROTOCOL TEXT: Oral bioavailability in mouse at 100 mg/kg administered as suspension in 10% captisol
# Assay type: ADME, organism-based
# SETTINGS: in vivo
MEASURE: bioavailability (%)
Give the value, in units of %, as a plain number.

bioavailability in this record for C[C@]1(CO)Cc2cc(NC(=O)c3cnn4cccnc34)c(N3CCOCC3)cc2O1 : 49

----------
The compounds listed here are annotated with their Cmax.
# PROTOCOL TEXT: Cmax in mouse at 5 mg/kg, po
# Format: ADME, organism-based
# Set-up: dose 5 mg/kg, route oral
# SETTINGS: in vivo, read-out: Cmax
All answers are understood in nM, so give the number only.

- ITEM SMILES: "C[C@]1(CO)Cc2cc(NC(=O)c3cnn4cccnc34)c(N3CCOCC3)cc2O1"
  Cmax, nM: 2100
- ITEM SMILES: "Cn1c(N2CCOCC2)nc2cc(N3CCC(CO)CC3)c(NC(=O)c3cnn4cccnc34)cc21"
  Cmax, nM: 200

Cmax measured on O=C(Nc1cc2sc(N3CCOCC3)nc2cc1N1CCOCC1)c1cnn2cccnc12 = 200

----------
AUC(0-inf) values for the compounds below.
# PROTOCOL TEXT: AUC (infinity) in mouse at 5 mg/kg, po
# Assay type: ADME, organism-based
# Set-up: dose 5 mg/kg, route oral, time infinity
# SETTINGS: in vivo
Number in µM·h, nothing else.

- ITEM SMILES: "Cn1c(N2CCOCC2)nc2cc(N3CCC(CO)CC3)c(NC(=O)c3cnn4cccnc34)cc21"
  AUC(0-inf) (µM·h): 0.5

According to the records, this compound C[C@]1(CO)Cc2cc(NC(=O)c3cnn4cccnc34)c(N3CCOCC3)cc2O1 displays AUC(0-inf) of 2.3

The measured AUC(0-inf) associated with O=C(Nc1cc2sc(N3CCOCC3)nc2cc1N1CCOCC1)c1cnn2cccnc12 reads 0.6

----------
# PROTOCOL TEXT: Half-life in mouse at 300 mg/kg, po administered as suspension in 10% captisol
# Type: ADME, organism-based
# SETTINGS: in vivo
MEASURE: half-life (h)
The figure you give is taken to be in h; do not add the unit.

Quick note, half-life for C[C@]1(CO)Cc2cc(NC(=O)c3cnn4cccnc34)c(N3CCOCC3)cc2O1 landed at 42

----------
Entries and their AUC(0-inf)
# PROTOCOL TEXT: AUC (infinity) in mouse at 30 mg/kg, po
# Assay type: ADME, organism-based
# Set-up: dose 30 mg/kg, time infinity, route oral
# SETTINGS: in vivo
Please reply with the bare figure in µM·h and do not write the unit itself.

- ITEM SMILES: "O=C(Nc1cc2sc(N3CCOCC3)nc2cc1N1CCOCC1)c1cnn2cccnc12"
  UNIT DESCRIPTOR: "µM·h"
  AUC(0-inf): 11

Next:
AUC(0-inf) in this record for C[C@]1(CO)Cc2cc(NC(=O)c3cnn4cccnc34)c(N3CCOCC3)cc2O1 : 17

----------
# TEST SYSTEM: Interleukin-1 receptor-associated kinase 4 (Homo sapiens)
# PROTOCOL TEXT: Inhibition of human recombinant full length His6-tagged IRAK4 expressed in baculovirus expression system using H-KKARFSRFAGSSPSQSSMVAR as substrate incubated for 90 mins by fluorescence polarisation assay
MEASURE: pKi
Please note pKi is a logarithmic value: minus log10 of concentration in mol/L. Answer with that number alone.

- ITEM SMILES: "CCn1c(N2CCOCC2)nc2cc(N3CCC(CO)CC3)c(NC(=O)c3cnn4cccnc34)cc21"
  pKi: 7.02
- ITEM SMILES: "CC1(C)Cc2cc(NC(=O)c3cnn4cc(OC(F)F)cnc34)c(N3CCOCC3)cc2O1"
  pKi: 7.47
- ITEM SMILES: "CC1(C)Cc2cc(NC(=O)c3cnn4cccnc34)c(N3CCOCC3)cc2O1"
  pKi: 8.28

Continue with the compound presented below.
Given the compound CC1(C)Cc2cc(NC(=O)c3cnn4cc(O)cnc34)c(N3CCOCC3)cc2O1 and test system Interleukin-1 receptor-associated kinase 4 (Homo sapiens), the measured pKi is 8.49

----------
# TEST SYSTEM: Interleukin-1 receptor-associated kinase 4 (Homo sapiens, UniProt Q9NWZ3)
# Sequence (Q9NWZ3 whole entry): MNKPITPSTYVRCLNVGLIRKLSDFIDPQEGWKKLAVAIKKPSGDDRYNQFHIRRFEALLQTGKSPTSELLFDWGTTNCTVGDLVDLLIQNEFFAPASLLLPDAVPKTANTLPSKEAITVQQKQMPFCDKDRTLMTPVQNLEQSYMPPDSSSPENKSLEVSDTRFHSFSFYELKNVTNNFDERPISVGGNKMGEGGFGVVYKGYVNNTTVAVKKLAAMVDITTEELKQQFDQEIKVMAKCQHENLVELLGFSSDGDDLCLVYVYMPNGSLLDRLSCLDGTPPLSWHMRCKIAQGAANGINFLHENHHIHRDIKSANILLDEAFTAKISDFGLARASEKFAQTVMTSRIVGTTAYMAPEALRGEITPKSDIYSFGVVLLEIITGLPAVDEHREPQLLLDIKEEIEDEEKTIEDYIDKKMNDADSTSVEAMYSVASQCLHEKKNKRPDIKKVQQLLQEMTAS
# PROTOCOL TEXT: Inhibition of IRAK4 in human THP1-Xblue-MD2-CD14 cells assessed as reduction in LPS-induced NFkappaB transcription by measuring alkaline phosphatase level preincubated for 1 hr followed by LPS stimulation and measured after 20 hrs by quanti-blue reagent based reporter assay
Entries and their IC50
The figure you give is taken to be in nM; do not add the unit.

Completed entries (count: 2):
- ITEM SMILES: "O=C(Nc1cc2cnc(N3CCOCC3)nc2cc1N1CCCCC1)c1cnn2cccnc12"
  TEST SYSTEM: "Interleukin-1 receptor-associated kinase 4 (Homo sapiens, UniProt Q9NWZ3)"
  TEST RESULT: 3000
- ITEM SMILES: "Cn1c(N2CCOCC2)nc2cc(N3CCC(CO)CC3)c(NC(=O)c3cnn4cccnc34)cc21"
  TEST SYSTEM: "Interleukin-1 receptor-associated kinase 4 (Homo sapiens, UniProt Q9NWZ3)"
  TEST RESULT: 97

Entry O=C(Nc1cc2ccc(N3CCOCC3)nc2cc1N1CCCCC1)c1cnn2cccnc12 under Interleukin-1 receptor-associated kinase 4 (Homo sapiens, UniProt Q9NWZ3) had IC50 of 1300

Considering CC(C)(O)[C@]1(C)Cc2cc(NC(=O)c3cnn4cccnc34)c(N3CCOCC3)cc2O1 , its IC50 with Interleukin-1 receptor-associated kinase 4 (Homo sapiens, UniProt Q9NWZ3) was recorded as 170

----------
# PROTOCOL TEXT: Plasma clearance in dog at 0.3 mg/kg, iv
# Assay type: ADME, organism-based, Canis lupus familiaris
MEASURE: clearance
State the value with its unit after it.

Value of measured clearance for the entry C[C@]1(CO)Cc2cc(NC(=O)c3cnn4cccnc34)c(N3CCOCC3)cc2O1 : 9.3 mL/min/kg

----------
# PROTOCOL TEXT: Plasma clearance in rat at 1 mg/kg, iv
# Type: ADME, organism-based
MEASURE: clearance (mL/min/kg)
Number only, in mL/min/kg; omit the unit.

The reported clearance of the compound C[C@]1(CO)Cc2cc(NC(=O)c3cnn4cccnc34)c(N3CCOCC3)cc2O1 was 6.6

----------
# PROTOCOL TEXT: Plasma clearance in mouse at 1 mg/kg, iv
# Type: ADME, organism-based
MEASURE: clearance
Output should be the measured figure followed by the unit it is expressed in.

Short answer for C[C@]1(CO)Cc2cc(NC(=O)c3cnn4cccnc34)c(N3CCOCC3)cc2O1 : clearance was 54 mL/min/kg

----------
# PROTOCOL TEXT: AUC (infinity) in mouse at 100 mg/kg, po administered as suspension in MCT
# Type: ADME, organism-based
# Parameters: dose 100 mg/kg, time infinity, route oral
# SETTINGS: in vivo
MEASURE: AUC(0-inf)
Phrase the answer as number then unit, nothing more needed.

The compound listed as C[C@]1(CO)Cc2cc(NC(=O)c3cnn4cccnc34)c(N3CCOCC3)cc2O1 shows AUC(0-inf) equal to 15.1 µM·h

----------
# PROTOCOL TEXT: Cmax in mouse at 300 mg/kg, po administered as suspension in 10% captisol
# Format: ADME, organism-based
# Set-up: dose 300 mg/kg, route oral
# SETTINGS: in vivo
MEASURE: Cmax
The number alone won't do; follow it with the unit.

Lookup result for C[C@]1(CO)Cc2cc(NC(=O)c3cnn4cccnc34)c(N3CCOCC3)cc2O1 ; measured Cmax: 14 µM
